Values compiled from the supplement of paper PMC11061612.

System: SK-GT-4 (Esophageal Adenocarcinoma);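 also: after 72 h of two-drug dosing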
Assay: Bliss excess, mean over the matrix (fraction); higher = more synergy
measure_name: Bliss excess
Format: numeric value only, no unit, no commentary.

get_value(item= COc1cc2ncnc(Nc3ccc(F)c(Cl)c3)c2cc1OCCCN1CCOCC1 [Gefitinib] + CC(C)n1c(=O)n(C)c2cnc3cc(F)c(-c4ccc(OCCCN5CCCCC5)nc4)cc3c21 [AZD1390] (first compound max 10 µM, 7x7, partner max 0.3 µM) , readout=Bliss excess) returns -0.0846

get_value(item= CC(=O)c1c(C)c2cnc(Nc3ccc(N4CCNCC4)cn3)nc2n(C2CCCC2)c1=O [Palbociclib] + Cc1c2c(nn1C)CSCc1cc(n(C)n1)CSc1cc(c3ccccc3c1)OCCCc1c(C(=O)O)n(C)c3c-2c(Cl)ccc13 [AZD5991] (first compound max 10 µM, 7x7, partner max 1 µM) , readout=Bliss excess) returns -0.0645
